# EXPERIMENTAL_TARGET: T1, HLA-B*2705 heavy chain with human beta 2 microglobulin on splenocytes of HLA-B27/hb2m transgenic mice (human)
# T1 construct: whole, on cells; also called TG; HLA-B*27+ transgenic splenocytes
# ASSAY_INFO: flow cytometry, HLA-B27/hb2m transgenic mouse splenocytes, antibody 0.1 ug/ml
Reported MFI values for a set of binders
OUTCOME_MEASURE: MFI (MFI)

binder="H4H2718N (antibody, V domains shown) VH: EVQLVESGGGLVQPGRSLRLSCAASGFTFDEYAMHWVRQVPGKGLEWVSGISRNSGTIGYVDSVLGRFTISRDNAKNSLYLQMNSLRPEDTALYYCAKDKGWLLGMDVWGQGTTVTVSS VL: DIQMTQSPSSLSASVGDRVTITCRASQAIRNDLGWYQQKPGKAPKRLIYAASSLQSGVPSRFSGSGSGTEFALTISSLQPEDFATYYCLQYNSYLYTFGQGTKLEIK" reported_measurement=55.6
binder="H4H2538P (antibody, V domains shown) VH: QVQLVQSGAEVKKPGASVKVSCKASGYTFTDYYMHWVRQAPGQGLEWIGWINPNSGGSNFAQKFQGRVTMTRDTSISTAYMELSRLRSDDTAVYYCARKAGYTSSWFDYWGQGTLVTVSS VL: DIVMTQSPDSLAVSLGERATINCKSSQSVLYSFNNKNYLSWYQQKPGQPPKLLIYWASTRESGVPDRFSGSGSGTDFTLTISSLQAEDAAVYYCQQYYSMITFGQGTRLEIK" reported_measurement=70.4
binder="H4H2524P (antibody, V domains shown) VH: QVQLQESGPGLVKPSQTLSLTCTVSGGSISSDGYYWSWIRQHPGKGLEWIGYIYYSGNTYYNPSLKSRVTISVDTSKNHFSLKLSSVTAADTAVYYCTRDPRGITGTHYFDYWGQGTLVTVSS VL: EIVLTQSPGTLSLSPGERATLSCRTSQSVSSSYLAWYQQKPGQAPRLLIYGASSRATGIPDRFSGSGSGTDFTLTISRLEPEDFAVYYCQQFGTSLFTFGPGTKVDIK" reported_measurement=54.8
